assay notes: chemical genetic growth profiling, strain panel (AID 1159580);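 further: tested at 20 µM; growth read once vehicle control cultures reached saturation at 30 °C; 1 = growth at the plate median or of vehicle wells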
condition info: S. cerevisiae deletion strains, growth OD, locus YDL108W, strain KIN28
About 2,000 (36%) of roughly 5,500 compounds were called active. Not shown: some 18% with an inconclusive outcome. No stated cut-off is given here; in the data, active means normalized growth mostly below about 0.91 (no sharp cut-off); inconclusive means no clear call, values can overlap the other calls; inactive means mostly above about 0.92. This is one part of the list.
Use one of these outcomes when replying: True for active, False for inactive

| smiles record | class |
| --- | --- |
| O=C(Nc1cc(Cl)cc(Cl)c1)Nc1cc(-c2cccs2)[nH]n1 | False |
| O=C(Oc1cc(Cl)c(Cl)cc1Cl)C1c2ccccc2Oc2ccccc21 | False |
| S=C(Nc1cc(-c2cccs2)[nH]n1)Nc1ccccc1Cl | False |
| Cc1cc(SCc2[nH]nc3oc(=O)cc(C)c23)c(Cl)cc1Cl | False |

Please turn your attention to the following entry.
Test call for this compound, please: O=C(C=C(O)c1ccc(Br)cc1)C(=O)Nc1ccccc1 True

###

normalized growth: recorded values
assay notes: chemical genetic growth profiling, strain panel (AID 1159580);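 further: tested at 20 µM; growth read once vehicle control cultures reached saturation at 30 °C; 1 = growth at the plate median or of vehicle wells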
condition info: S. cerevisiae deletion strains, growth OD, locus YNL224C, strain SQS1, stronger effect = lower value
Among all 5,500 compounds or so, about 2,000 (36%) were called active. About 18% were inconclusive and are not listed. Some of the results follow.

These solved cases illustrate the format of a correct answer.
| compound | normalized growth |
| --- | --- |
| C1CCc2nnnn2CC1 | 1.02 (inactive) |
| CCSC(=N)N | 1.01 (inactive) |
| CCC1(c2ccc(N)cc2)CCC(=O)NC1=O (centres undefined) | 1.02 (inactive) |
| CC(C)Oc1cccnc1N(C)C1CCN(Cc2ccccc2)CC1 | 1 (inactive) |
| CCCCCCCCCCCCCCC[C@H](O)[C@H](N)CO | 0.928 (inactive) |
| CN(C)CCCCSC(=N)N | 1 (inactive) |
| C[N+]1(C)C2CCC1CC(OC(=O)c1c[nH]c3ccccc13)C2 (centres undefined) | 1.02 (inactive) |
| CCCCCCCCCCCCC/C=C/[C@@H](O)[C@@H](N)CO | 1.06 (inactive) |

Could you now consider this next compound?
Give normalized growth for O=C(O)[C@@H]1C[C@H](C(=O)O)N1 0.965 (inactive)

###

normalized growth for assorted molecules
assay notes: chemical genetic growth profiling, strain panel (AID 1159580);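 further: tested at 20 µM; growth read once vehicle control cultures reached saturation at 30 °C; 1 = growth at the plate median or of vehicle wells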
condition info: S. cerevisiae deletion strains, growth OD, locus YDL074C, strain BRE1, stronger effect = lower value
About 2,000 (36%) of roughly 5,500 compounds were called active. Another 18% or so got no clear call; they are omitted. The list shows a part of the results.

# annotated cases, reported normalized growth shown
| molecule | normalized growth |
| --- | --- |
| CCC1(c2ccc(N)cc2)CCC(=O)NC1=O (stereo unspecified) | 0.994 (inactive) |
| CCC1(c2ccccc2)C(=O)NCNC1=O | 1.01 (inactive) |

Report measured normalized growth; entry is C=CC(C)(C)c1c2c(c(O)c3c(=O)c4ccc(O)c(O)c4oc13)C=CC(C)(C)O2 0.615 (active)

Fill in normalized growth for record CCC1(C)CC(=O)NC1=O (stereo unspecified) 0.977 (inactive)

Given CC(=O)[C@H]1CCC2C3C[C@H](C)C4=CC(=O)CC[C@]4(C)C3[C@@H](O)C[C@@]21C (stereo partly specified) , respond with its normalized growth. 0.98 (inactive)

Identify the reported normalized growth for the following entry. CC(=O)O[C@]1(C(C)=O)CCC2C3C=C(C)C4=CC(=O)CCC4(C)C3CCC21C (stereo partly specified) 0.784 (inactive)
